Each item that follows carries a reported ED50 with Escherichia coli No. 29.
# Test system: Escherichia coli No. 29
# test.summary: in vivo antibacterial activity (ED50) in mice challenged intraperitoneally with E. coli No. 29
# Design: species or system Escherichia coli No. 29; Male ddY mice
# condition.notes: oral; male ddY mice; fatality over a week; Probit method
observed.property: ED50 with Escherichia coli No. 29

CC1=C(C(=O)O)N2C(=O)[C@@H](NC(=O)[C@H](N)c3ccccc3)[C@H]2SC1 [Cephalexin, cephalexin, reference compound] | 1.60 mg/mouse
CCOC(=O)C(N)CSCC(=O)NC1(OC)C(=O)N2C(C(=O)OCOC(=O)C(C)(C)C)=C(CSc3nnnn3C)CSC21 (centres unmarked) | 0.86 mg/mouse
COC1(NC(=O)CSCC(N)C(=O)O)C(=O)N2C(C(=O)OC(C)OC(=O)C(C)(C)C)=C(CSc3nnnn3C)CSC21 (centres unmarked) | 0.25 mg/mouse
COC(=O)C(N)CSCC(=O)NC1(OC)C(=O)N2C(C(=O)OC(C)OC(C)=O)=C(CSc3nnnn3C)CSC21 (centres unmarked) | 0.36 mg/mouse
CO[C@@]1(NC(=O)Cc2cccs2)C(=O)N2C(C(=O)O)=C(COC(N)=O)CS[C@@H]21 [Cefoxitin, cefoxitin, reference compound] | > 5.0 mg/mouse

----------
Reported values: MIC for Staphylococcus aureus 209p, one per item.
observed.property: MIC

COC1(NC(=O)CSCCC(N)C(=O)O)C(=O)N2C(C(=O)[O-])=C(C[n+]3ccc(C(N)=O)cc3)CSC21 (centres unmarked) [Ex. 12] | 6.25 mg/L
COC1(NC(=O)CSCCN)C(=O)N2C(C(=O)O)=C(CSc3nnnn3C)CSC21 (centres unmarked) [Ex. 1] | 1.56 mg/L
CO[C@@]1(NC(=O)Cc2cccs2)C(=O)N2C(C(=O)O)=C(COC(N)=O)CS[C@@H]21 [Cefoxitin, cefoxitin, reference compound] | 1.56 mg/L
COC1(NC(=O)CSCCNC(N)=O)C(=O)N2C(C(=O)O)=C(CSc3nnnn3C)CSC21 (centres unmarked) [Ex. 2] | 3.13 mg/L
COC1(NC(=O)CSCCC(N)C(=O)O)C(=O)N2C(C(=O)O)=C(CSc3nnnn3C)CSC21 (centres unmarked) [Ex. 11] | 3.13 mg/L

----------
# Tested on: Pseudomonas aeruginosa IFO 3080
# test.summary: MIC, minimum inhibitory concentration (nutrient agar, 37° C., 20 hours)
# Assay type: cell-based
# condition.notes: IFO3080
Each item that follows carries a reported MIC.
observed.property: MIC (µg/mL)

COC1(NC(=O)CSCCC(N)C(=O)O)C(=O)N2C(C(=O)[O-])=C(C[n+]3ccc(C(N)=O)cc3)CSC21 (centres unmarked) [Ex. 12] | 6.25
COC1(NC(=O)CSCCNC(N)=O)C(=O)N2C(C(=O)O)=C(CSc3nnnn3C)CSC21 (centres unmarked) [Ex. 2] | 25
COC1(NC(=O)CSCCC(N)C(=O)O)C(=O)N2C(C(=O)O)=C(CSc3nnnn3C)CSC21 (centres unmarked) [Ex. 11] | 100
COC1(NC(=O)CSCCN)C(=O)N2C(C(=O)O)=C(CSc3nnnn3C)CSC21 (centres unmarked) [Ex. 1] | 25
CO[C@@]1(NC(=O)Cc2cccs2)C(=O)N2C(C(=O)O)=C(COC(N)=O)CS[C@@H]21 [Cefoxitin, cefoxitin, reference compound] | 100

// data source = patent US4357331A
